Would you kindly list pIC50 for each of these molecules?
molecular target: Human immunodeficiency virus type 1 integrase (Human immunodeficiency virus 1, UniProt Q7ZJM1); assay: Concentration to inhibit strand transfer of soluble mutant (F185K, C280S) of wild type Human immunodeficiency virus-1 integrase
Answers are plain numbers, as −log10 of the molar value.

Look at each molecule and report its pIC50.
1. O=C(NCc1cccc(CNC(=O)C(=O)NCc2ccco2)c1)C(=O)NCc1ccco1
2. Cc1ccc(NC(=O)C(=O)NCc2ccc(/C=N\NC(=O)C(=O)Nc3cc(Cl)ccc3C)o2)cc1C
3. O=C(Nc1ccc(Cc2ccc(O)c(NC(=O)c3ccccc3F)c2)cc1O)c1ccccc1F
4. CCc1cc(/C=N/CC/N=C/c2cc(CC)sc2S)c(S)s1

1: 4.40; 2: 4.15; 3: 4.48; 4: 5.22

---

target: Human immunodeficiency virus type 1 integrase (Human immunodeficiency virus 1); assay: Concentration to inhibit 3' processing of wild type Human immunodeficiency virus-1 integrase
pIC50: −log10 of the molar value.
Would you kindly list pIC50 for each of these compounds?

Observe how each entry below is paired with its result.
{"COMPOUND_STRUCTURE_STRING": "COC(=O)c1sccc1NC(=O)c1ccc(C(=O)Nc2ccsc2C(=O)OC)cc1", "TEST_TARGET": "Human immunodeficiency virus type 1 integrase (Human immunodeficiency virus 1)", "pIC50": "< 4.00"}
{"COMPOUND_STRUCTURE_STRING": "CCOc1ccc2[nH]c(SCC(=O)Nc3cc(C(=O)O)cc(C(=O)O)c3)nc2c1", "TEST_TARGET": "Human immunodeficiency virus type 1 integrase (Human immunodeficiency virus 1)", "pIC50": "< 4.00"}
{"COMPOUND_STRUCTURE_STRING": "CCN(CC)c1ccc(/C=N/Nc2nonc2N)c(O)c1", "TEST_TARGET": "Human immunodeficiency virus type 1 integrase (Human immunodeficiency virus 1)", "pIC50": "< 4.00"}
{"COMPOUND_STRUCTURE_STRING": "O=C(O)c1cc(NS(=O)(=O)c2ccc(NCc3ccccc3)c([N+](=O)[O-])c2)cc(C(=O)O)c1", "TEST_TARGET": "Human immunodeficiency virus type 1 integrase (Human immunodeficiency virus 1)", "pIC50": "< 4.00"}
{"COMPOUND_STRUCTURE_STRING": "O=C(Nc1ccc(Cc2ccc(NC(=O)c3cccc([N+](=O)[O-])c3)c(C(=O)O)c2)cc1C(=O)O)c1cccc([N+](=O)[O-])c1", "TEST_TARGET": "Human immunodeficiency virus type 1 integrase (Human immunodeficiency virus 1)", "pIC50": 4.82}

Look at each compound and report its pIC50.
1. O=C(Nc1ccc(Cc2ccc(O)c(NC(=O)c3ccccc3F)c2)cc1O)c1ccccc1F
2. O=C(Nc1ccc(Cc2ccc(NC(=O)c3cccs3)c(C(=O)O)c2)cc1C(=O)O)c1cccs1
3. C/C(CC(=O)Nc1c(C)cc(C)cc1C)=N\NC(=O)c1ccc(O)cc1O
4. COC(=O)C1=C(O)/C(=C\c2ccc(CNC(=O)C(=O)Nc3ccc(C)cc3)o2)N=C1C
5. CCOC(=O)C(=O)NCc1ccc(/C=C2/N=C(C)C(C(=O)OCC)=C2O)o1

1. < 4.00
2. 4.20
3. < 3.00
4. < 4.00
5. < 4.00

---

biological target: Human immunodeficiency virus type 1 integrase (Human immunodeficiency virus 1, UniProt Q7ZJM1); test: Concentration to inhibit 3' processing of soluble mutant (F185K, C280S) of wild type Human immunodeficiency virus-1 integrase
Would you kindly list pIC50 for each of these molecules?
Give bare numbers, as −log10 of the molar value.

Observe how each entry below is paired with its result.
{"COMPOUND_STRUCTURE_STRING": "O=C(Nc1ccc(Cc2ccc(O)c(NC(=O)c3ccccc3F)c2)cc1O)c1ccccc1F", "pIC50": 3.69}
{"COMPOUND_STRUCTURE_STRING": "Cc1ccc(NC(=O)C(=O)NCc2ccc(/C=N\\NC(=O)C(=O)Nc3cc(Cl)ccc3C)o2)cc1C", "pIC50": 3.29}

Shifting focus to the molecule that follows.
Annotate the molecule O=C(NCc1cccc(CNC(=O)C(=O)NCc2ccco2)c1)C(=O)NCc1ccco1 with its measured pIC50.
3.00
